# Tested on: SKOV3
# PROTOCOL DESCRIPTION: 3H thymidine proliferation assay, SKOV3
# Assay type: cell-based, human
# PROTOCOL CONDITIONS: Homo sapiens, SK-OV-3; 3H thymidine method, 72 h incubation; read-out: EC50, SKOV3
EXPERIMENTAL READOUT: EC50
Numeric answer plus unit only.

Noted for COc1cccc2c1C(=O)c1c(O)c3c(c(O)c1C2=O)C[C@@](O)(C(=O)CO)C[C@@H]3O[C@H]1C[C@H](N)[C@H](O)[C@H](C)O1 [Dox, doxorubicin, reference compound] : its EC50 reads 163 nM

Noted for Nc1ccc(C(=O)Nc2ccc3[nH]c(C(=O)N4C[C@@H](CCl)c5c4cc(O)c4ccccc54)cc3c2)cc1 [CBI, reference compound] : its EC50 reads 0.047 nM

====

# System: BT474
# PROTOCOL DESCRIPTION: ATP luminescence proliferation assay, BT474
# Assay type: cell-based, human
# PROTOCOL CONDITIONS: ATP luminescence, BT474, 48 h incubation; read-out: EC50 BT474 (48 h)
# Procedure: This example generally describes the procedures used to assay the antiproliferative activity of compounds of this invention or their conjugates. […] The ^3H thymidine plates were pulsed with 1.0 μCi of ^3H-thymidine per well for the last 24 hours of the total incubation period, harvested, and read on a Top Count Scintillation Counter (Packard Instruments, Meriden, Conn.). […] Table 3 provides the data for the ATP luminescence proliferation assays, with an incubation period of 48, 72, or 96 h, as noted.
EXPERIMENTAL READOUT: pEC50
# log scale: pEC50 equals minus log10 of the concentration in mol/L

Noted for CC[C@H](C)[C@H](NC(=O)[C@H]1CCCCN1C)C(=O)N(C)[C@H](C[C@@H](OC)c1nc(C(=O)N[C@@H](Cc2ccccc2)C(=O)OC)cs1)C(C)C : its pEC50 reads 7.72

Noted for CC[C@H](C)[C@H](NC(=O)[C@H]1CCCCN1C)C(=O)N(C)[C@H](C[C@@H](OC)c1nc(C(=O)N[C@@H](Cc2ccc(N)cc2)CC(C)C(=O)O)cs1)C(C)C (stereo partly drawn) : its pEC50 reads 7.96

Noted for CC[C@H](C)[C@H](NC(=O)[C@H]1CCCCN1C)C(=O)N(COC(=O)CC(C)C)[C@H](C[C@@H](O)c1nc(C(=O)N[C@@H](Cc2ccccc2)C(=O)OC)cs1)C(C)C : its pEC50 reads 7.92

====

# System: Nomo-1
# PROTOCOL DESCRIPTION: 3H thymidine proliferation assay, Nomo-1
# Type: cell-based, human
# PROTOCOL CONDITIONS: 3H thymidine method, 72 h incubation; read-out: EC50, Nomo-1
Kindly state EC50 for each of the entries shown.

Measured on Nomo-1, CC[C@H](C)[C@H](NC(=O)[C@H]1CCCCN1C)C(=O)N(COC(=O)CC(C)C)[C@H](C[C@@H](O)c1nc(C(=O)N[C@@H](Cc2ccccc2)C(=O)OC)cs1)C(C)C has a documented EC50 of 200 pM

Measured on Nomo-1, CC[C@H](C)[C@H](NC(=O)[C@H]1CCCCN1C)C(=O)N(C)[C@H](C[C@@H](OC)c1nc(C(=O)N[C@@H](Cc2ccc(N)cc2)CC(C)C(=O)O)cs1)C(C)C (some centres unmarked) has a documented EC50 of 3500 pM

Measured on Nomo-1, CCC[C@H](NC(=O)[C@H](Cc1ccccc1)NC(=O)c1csc([C@@H](C[C@H](C(C)C)N(C)C(=O)[C@@H](NC(=O)[C@H]2CCCCN2C)[C@@H](C)CC)OC)n1)C(=O)OC has a documented EC50 of 1300 pM

Measured on Nomo-1, CC[C@H](C)[C@H](NC(=O)[C@H]1CCCCN1C)C(=O)N(COC(=O)CC(C)C)[C@H](C[C@@H](OC(C)=O)c1nc(C(=O)N[C@@H](Cc2ccccc2)C(=O)OC)cs1)C(C)C has a documented EC50 of 7.5 pM

Measured on Nomo-1, CC[C@H](C)[C@H](NC(=O)[C@H]1CCCCN1C)C(=O)N(C)[C@H](C[C@@H](OC)c1nc(C(=O)N[C@@H](Cc2ccccc2)C(=O)OC)cs1)C(C)C has a documented EC50 of 1800 pM

Measured on Nomo-1, CC[C@H](C)[C@H](NC(=O)[C@H]1CCCCN1C)C(=O)N(COC)[C@H](C[C@@H](OC)c1nc(C(=O)N[C@@H](Cc2ccccc2)C(=O)OC)cs1)C(C)C [Compound 29c] has a documented EC50 of 430 pM

Measured on Nomo-1, CC[C@H](C)[C@H](NC(=O)[C@H]1CCCCN1C)C(=O)N(COC(=O)CC(C)C)[C@H](C[C@@H](OC(C)=O)c1nc(C(=O)N[C@@H](Cc2ccccc2)C[C@H](C)C(=O)O)cs1)C(C)C [Tub D, tubulysin D, reference compound] has a documented EC50 of 42 pM

Measured on Nomo-1, CC[C@H](C)[C@H](NC(=O)[C@H]1CCCCN1C)C(=O)N(C)[C@H](C[C@@H](OC(C)=O)c1nc(C(=O)N[C@@H](Cc2ccc(N)cc2)C(=O)O)cs1)C(C)C has a documented EC50 of > 100000 pM

====

# Tested on: BT474
# PROTOCOL DESCRIPTION: ATP luminescence proliferation assay, BT474
# Format: cell-based, human
# PROTOCOL CONDITIONS: ATP luminescence, BT474, 48 h incubation; read-out: EC50 BT474 (48 h)
# Experimental: This example generally describes the procedures used to assay the antiproliferative activity of compounds of this invention or their conjugates. […] The ^3H thymidine plates were pulsed with 1.0 μCi of ^3H-thymidine per well for the last 24 hours of the total incubation period, harvested, and read on a Top Count Scintillation Counter (Packard Instruments, Meriden, Conn.). […] Table 3 provides the data for the ATP luminescence proliferation assays, with an incubation period of 48, 72, or 96 h, as noted.
EXPERIMENTAL READOUT: pEC50
# log scale: pEC50 equals minus log10 of the concentration in mol/L

Noted for CCC[C@H](NC(=O)[C@H](Cc1ccccc1)NC(=O)c1csc([C@@H](C[C@H](C(C)C)N(C)C(=O)[C@@H](NC(=O)[C@H]2CCCCN2C)[C@@H](C)CC)OC)n1)C(=O)OC : its pEC50 reads 8.06

Noted for CC[C@H](C)[C@H](NC(=O)[C@H]1CCCCN1C)C(=O)N(COC(=O)CC(C)C)[C@H](C[C@@H](OC(C)=O)c1nc(C(=O)N[C@@H](Cc2ccccc2)C(=O)OC)cs1)C(C)C : its pEC50 reads 8.82

Noted for CC[C@H](C)[C@H](NC(=O)[C@H]1CCCCN1C)C(=O)N(COC)[C@H](C[C@@H](OC)c1nc(C(=O)N[C@@H](Cc2ccccc2)C(=O)OC)cs1)C(C)C [Compound 29c] : its pEC50 reads 6.31

====

# System: A2058
# PROTOCOL DESCRIPTION: ATP luminescence proliferation assay, A2058
# Type: cell-based, human
# PROTOCOL CONDITIONS: ATP luminescence, A2058, 72 h incubation; read-out: EC50 A2058 (72 h)
EXPERIMENTAL READOUT: EC50
Numeric answer plus unit only.

Noted for CC[C@H](C)[C@H](NC(=O)[C@H]1CCCCN1C)C(=O)N(COC(=O)CC(C)C)[C@H](C[C@@H](OC(C)=O)c1nc(C(=O)N[C@@H](Cc2ccccc2)C[C@H](C)C(=O)O)cs1)C(C)C [Tub D, tubulysin D, reference compound] : its EC50 reads 0.0064 nM

Noted for CC[C@H](C)[C@H](NC(=O)[C@H]1CCCCN1C)C(=O)N(COC(=O)CC(C)C)[C@H](C[C@@H](OC(C)=O)c1nc(C(=O)N[C@@H](Cc2ccccc2)C(=O)OC)cs1)C(C)C [Compound 29] : its EC50 reads 2.9 nM

Noted for CC[C@H](C)[C@H](NC(=O)[C@H]1CCCCN1C)C(=O)N(C)[C@H](C[C@@H](OC)c1nc(C(=O)N[C@@H](Cc2ccc(N)cc2)CC(C)C(=O)O)cs1)C(C)C (some centres unmarked) [Compound 51] : its EC50 reads 5.5 nM

Noted for CC[C@H](C)[C@H](NC(=O)[C@H]1CCCCN1C)C(=O)N(COC(=O)CC(C)C)[C@H](C[C@@H](O)c1nc(C(=O)N[C@@H](Cc2ccccc2)C(=O)OC)cs1)C(C)C [Compound 28] : its EC50 reads 20 nM

Noted for CCC[C@H](NC(=O)[C@H](Cc1ccccc1)NC(=O)c1csc([C@@H](C[C@H](C(C)C)N(C)C(=O)[C@@H](NC(=O)[C@H]2CCCCN2C)[C@@H](C)CC)OC)n1)C(=O)OC [Compound 19] : its EC50 reads 26 nM
